measured-target: biotinylated (prokaryotic) IL-6 (Homo sapiens, UniProt P05231)
Sequence (P05231 30-212): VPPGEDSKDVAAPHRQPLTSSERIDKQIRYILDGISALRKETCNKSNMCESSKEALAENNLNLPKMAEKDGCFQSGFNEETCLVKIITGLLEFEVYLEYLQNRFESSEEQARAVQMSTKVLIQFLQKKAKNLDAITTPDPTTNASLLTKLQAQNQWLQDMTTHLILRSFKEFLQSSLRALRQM
protocol-description: Surface plasmon resonance (Biacore), biotinylated IL-6 captured on streptavidin sensor chip
Format: binding
settings: purified Fab
Procedure: The binding kinetics of IL-6-specific Fabs that were able to cross-compete with the B-E8 antibody was assessed using surface plasmon resonance (Biacore). […] From the washing phase the off-rate (kd) was determined, while from the injection phase the on-rate (ka) was calculated using the concentration and off-rate as parameters. […]
readout: KA (M⁻¹)
One number for each entry, in M⁻¹.

[[record]]
molecule = "29B11: antagonistic IL-6-specific Fab clone from immunized llama (antibody, listed as Lama glama, V domains shown) VH: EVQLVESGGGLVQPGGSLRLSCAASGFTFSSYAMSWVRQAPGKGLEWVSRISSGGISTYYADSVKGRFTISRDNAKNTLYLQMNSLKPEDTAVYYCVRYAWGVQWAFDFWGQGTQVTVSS VL: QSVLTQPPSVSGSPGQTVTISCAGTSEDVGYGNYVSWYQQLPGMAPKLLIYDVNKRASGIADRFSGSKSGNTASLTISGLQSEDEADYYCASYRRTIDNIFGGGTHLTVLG"
assay_value = "4.36e+07"

[[record]]
molecule = "24D10: antagonistic IL-6-specific Fab clone, parental of 61H7 (antibody, listed as Lama glama, V domains shown) VH: QLQVVESGGGLVQPGGSLRLSCAASGFTFSSYAMSWVRQAPGKGPEWVSRISSGGGSTSYADSVKGRFTISRDNAKNTLYLQMNSLKPEDTAVYYCANRAGWGMGDYWGQGTQVTVSS VL: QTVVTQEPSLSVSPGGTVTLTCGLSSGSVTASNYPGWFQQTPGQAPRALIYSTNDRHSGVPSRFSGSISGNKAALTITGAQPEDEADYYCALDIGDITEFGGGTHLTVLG"
assay_value = "3.7e+09"


Attention now turns to another entry.
Task item: Report KA for 18F8: antagonistic IL-6-specific Fab clone from immunized llama (antibody, listed as Lama glama, V domains shown) VH: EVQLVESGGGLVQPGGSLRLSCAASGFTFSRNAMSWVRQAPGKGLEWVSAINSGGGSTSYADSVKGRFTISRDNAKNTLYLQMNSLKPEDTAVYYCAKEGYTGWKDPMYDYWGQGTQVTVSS VL: QSALTQPSALSVTLGQTAKITCQGGSLGSRYAHWYQQKPGQAPVLVIYDDDSRPSGIPERFSGSSSGGRATLTISGAQAEDEGDYYCQSADTSEHIVFGGGTHLTVLG please.
Reply: 6.18e+07
